# reported Cytotoxicity Vero TC50; entries follow
tested on: Vero cells; assay: Cytotoxicity against Vero cells; type: cell-based, African monkey; conditions: African monkey, 48 h
Give just the number in nM; leave the unit off.

Illustrative cases are given below, each with its answer.
Read off the recorded Cytotoxicity Vero TC50 for C=C[C@@H](CO[C@H]1O[C@@H]2O[C@@]3(C)CC[C@H]4[C@H](C)CC[C@@H]([C@H]1C)[C@@]24OO3)O[C@H]1O[C@@H]2O[C@@]3(C)CC[C@H]4[C@H](C)CC[C@@H]([C@H]1C)[C@@]24OO3 [Compound 9]
773

Read the entry C[C@H]1[C@@H](OC/C=C\CO[C@H]2O[C@@H]3O[C@@]4(C)CC[C@H]5[C@H](C)CC[C@@H]([C@H]2C)[C@@]35OO4)O[C@@H]2O[C@@]3(C)CC[C@H]4[C@H](C)CC[C@@H]1[C@@]24OO3 [Compound 8] and write its reported Cytotoxicity Vero TC50.
709

Below: the item to evaluate.
For the compound C[C@H]1[C@@H](O[C@@H](CO[C@H]2O[C@@H]3O[C@@]4(C)CC[C@H]5[C@H](C)CC[C@@H]([C@H]2C)[C@@]35OO4)[C@H](O)CO)O[C@@H]2O[C@@]3(C)CC[C@H]4[C@H](C)CC[C@@H]1[C@@]24OO3 [Compound 12] , report Cytotoxicity Vero TC50.
825

----------
Cytotoxicity Vero TC50 reference
system: Vero cells; assay: Cytotoxicity against Vero cells; assay type: cell-based, African monkey; conditions: African monkey, 48 h

Dear colleague, please send me the reported Cytotoxicity Vero TC50 for `C[C@H]1[C@@H](OCC(=O)CO[C@H]2O[C@@H]3O[C@@]4(C)CC[C@H]5[C@H](C)CC[C@@H]([C@H]2C)[C@@]35OO4)O[C@@H]2O[C@@]3(C)CC[C@H]4[C@H](C)CC[C@@H]1[C@@]24OO3` when you can.
257 nM

Return value of Cytotoxicity Vero TC50 for input C[C@@H]1CC[C@H]2[C@@H](C)C(=O)O[C@@H]3O[C@@]4(C)CC[C@@H]1[C@]32OO4 [Compound 1, Artemisinin, reference compound] , no commentary.
> 1,686 nM

Give the value of Cytotoxicity Vero TC50 reported for the following: `C[C@H]1[C@@H](OCc2cc(O)cc(O)c2)O[C@@H]2O[C@@]3(C)CC[C@H]4[C@H](C)CC[C@@H]1[C@@]24OO3`
> 11,711 nM

Next:
Provide one value: measured Cytotoxicity Vero TC50 of `C[C@H]1[C@@H](OCC(=O)CO)O[C@@H]2O[C@@]3(C)CC[C@H]4[C@H](C)CC[C@@H]1[C@@]24OO3`
> 13,355 nM

For the compound CC1=CO[C@@H]2O[C@]3(C)CC[C@H]4[C@H](C)CC[C@@H]1[C@@]24OO3 [Compound 3, Anhydrodihydroartemisinin, reference compound] , report Cytotoxicity Vero TC50.
> 1,787 nM

Quickly give me recorded Cytotoxicity Vero TC50 for `C[C@H]1[C@@H](OCC[C@H](O)CO[C@H]2O[C@@H]3O[C@@]4(C)CC[C@H]5[C@H](C)CC[C@@H]([C@H]2C)[C@@]35OO4)O[C@@H]2O[C@@]3(C)CC[C@H]4[C@H](C)CC[C@@H]1[C@@]24OO3`
> 7,452 nM

Retrieve Cytotoxicity Vero TC50 measured for C[C@H]1[C@@H](OCC(O)CO[C@H]2O[C@@H]3O[C@@]4(C)CC[C@H]5[C@H](C)CC[C@@H]([C@H]2C)[C@@]35OO4)O[C@@H]2O[C@@]3(C)CC[C@H]4[C@H](C)CC[C@@H]1[C@@]24OO3 (some centres unmarked) and print it.
384 nM

Quick one: give measured Cytotoxicity Vero TC50 for `C[C@H]1[C@@H](OC[C@@H](O)[C@@H](O)CO[C@H]2O[C@@H]3O[C@@]4(C)CC[C@H]5[C@H](C)CC[C@@H]([C@H]2C)[C@@]35OO4)O[C@@H]2O[C@@]3(C)CC[C@H]4[C@H](C)CC[C@@H]1[C@@]24OO3`
> 7,270 nM

Retrieve Cytotoxicity Vero TC50 measured for C[C@H]1[C@@H](O)O[C@@H]2O[C@@]3(C)CC[C@H]4[C@H](C)CC[C@@H]1[C@@]24OO3 [Compound 2, Dihydroartemisinin, reference compound] and print it.
1,407 nM

Using known records, supply Cytotoxicity Vero TC50 for `C[C@H]1[C@@H](OCc2cc(O)cc(O[C@H]3O[C@@H]4O[C@@]5(C)CC[C@H]6[C@H](C)CC[C@@H]([C@H]3C)[C@@]46OO5)c2)O[C@@H]2O[C@@]3(C)CC[C@H]4[C@H](C)CC[C@@H]1[C@@]24OO3`
> 7,075 nM

Tell me its Cytotoxicity Vero TC50 given `C[C@H]1[C@@H](OC/C=C\CO)O[C@@H]2O[C@@]3(C)CC[C@H]4[C@H](C)CC[C@@H]1[C@@]24OO3` as the entry.
> 13,430 nM

----------
Listed compounds paired with reported Cytotoxicity Vero TC50
system: Vero cells; experiment: Cytotoxicity against Vero cells; type: cell-based, African monkey; details: African monkey, 48 h

Worked cases, answers included:
Enter measured Cytotoxicity Vero TC50, system Vero cells, for the compound shown: C[C@H]1[C@@H](OCC(CO[C@H]2O[C@@H]3O[C@@]4(C)CC[C@H]5[C@H](C)CC[C@@H]([C@H]2C)[C@@]35OO4)OS(C)(=O)=O)O[C@@H]2O[C@@]3(C)CC[C@H]4[C@H](C)CC[C@@H]1[C@@]24OO3 (stereo partly drawn) [Compound 14]
6,403 nM

Give reported Cytotoxicity Vero TC50 for C[C@H]1[C@@H](OC[C@@H]2O[C@@H]2CO[C@H]2O[C@@H]3O[C@@]4(C)CC[C@H]5[C@H](C)CC[C@@H]([C@H]2C)[C@@]35OO4)O[C@@H]2O[C@@]3(C)CC[C@H]4[C@H](C)CC[C@@H]1[C@@]24OO3 [Compound 13] (Vero cells)
> 7,475 nM

New cases:
Quote Vero cells Cytotoxicity Vero TC50 for entry C[C@H]1[C@@H](OCC[C@@H](CO[C@H]2O[C@@H]3O[C@@]4(C)CC[C@H]5[C@H](C)CC[C@@H]([C@H]2C)[C@@]35OO4)O[C@H]2O[C@@H]3O[C@@]4(C)CC[C@H]5[C@H](C)CC[C@@H]([C@H]2C)[C@@]35OO4)O[C@@H]2O[C@@]3(C)CC[C@H]4[C@H](C)CC[C@@H]1[C@@]24OO3 [Compound 18] .
5,259 nM
